# MEASURED TARGET: SHP2-C SH2;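 note: peptide library displayed on the E. coli surface as eCPX fusions, selected cells deep-sequenced, score is each peptide's frequency after selection divided by its frequency in the input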
# ASSAY EXPLANATION: SH2 binding enrichment of the phosphorylated peptide, bacterial display (enrichment ratio); higher = better substrate or ligand; peptides without Tyr show the background
ENDPOINT: SH2 binding enrichment

input_sequence="ASTHIYQIMNH [ITK_Y588_V587I]" endpoint="SH2 binding enrichment" measurement=1.41
input_sequence="YEEDSYSHIMA [FDPS_Y388]" endpoint="SH2 binding enrichment" measurement=0.564
input_sequence="DFKIIYIVPMR [SNRNP200_Y540_A542V]" endpoint="SH2 binding enrichment" measurement=2.13

a. RELGEYGLQAF [ALDH2_Y497_YF]
b. SHSMRYFDTAV [HLA-C_Y31]
c. VNKIYHPDFIV [LIG3_Y768_Y768H]
d. HLPAGYIIPLQ [GAA_Y822_R819P]
e. LIHLHYIRKDY [BBS4_Y43]
Challenge: Highest SH2 binding enrichment first, then in falling order down to the smallest. Use the labels to give the requested order.
Response given: d, e, a, c, b

1. DFPIGYPSFLA [TBCK_Y153_YF]
2. DKANRYFSPNF [PTEN_Y336]
Challenge: Response body: label of entry with the larger SH2 binding enrichment; valid values 1 , 2 . # reply format: chosen label
Response given: 2
(2: 1.16, 1: 0.578)

A. PLKFLYPNIDR [STAT1_Y668_K673R_YF]
B. LYYYSYLLKNH [PTEN_Y180_V175L]
C. VEDHFYEGGIG [TKT_Y564_YF]
D. ALAHKYDGGGG [HBB_Y146_H147D]
Challenge: Highest SH2 binding enrichment first, then in falling order down to the smallest. Use the labels to give the requested order.
Response given: B, A, C, D

====

# Test system: AncSZ;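 note: 11-residue human phosphosite peptides and single-mutation variants displayed on the E. coli surface, counted by deep sequencing, each peptide's frequency after selection divided by its frequency in the unselected input library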;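 note: frequency after pTyr selection over input frequency; kinase dosed for 20-30% of maximal phosphorylation in three min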
# ASSAY EXPLANATION: phosphorylation enrichment, bacterial display (enrichment ratio); higher = better substrate or ligand; peptides without Tyr show the background
Reported phosphorylation enrichment values for the following sequences.
Enter a number only.

input_sequence="RIGRKYKRVRF [F8_Y442_K444R]" measured_target=AncSZ endpoint="phosphorylation enrichment" measurement=2.77
input_sequence="AKLKDYFIFNK [CCDC42_Y149_YF]" measured_target=AncSZ endpoint="phosphorylation enrichment" measurement=0.82
input_sequence="PQDSAYHSGIQ [FLG_Y3940_S3935P]" measured_target=AncSZ endpoint="phosphorylation enrichment" measurement=0.651
input_sequence="KLQQWYREPRS [GPI_Y17_H20P]" measured_target=AncSZ endpoint="phosphorylation enrichment" measurement=0.85
input_sequence="EKAEVYGSENE [RIOK2_Y348]" measured_target=AncSZ endpoint="phosphorylation enrichment" measurement=1.11
input_sequence="CTTIHYNYKCN [TP53_Y234_M237K]" measured_target=AncSZ endpoint="phosphorylation enrichment" measurement=0.754
input_sequence="VNCHQYDGLVG [ATP2A2_Y407_E412G]" measured_target=AncSZ endpoint="phosphorylation enrichment" measurement=0.931
input_sequence="IRKTEYPFSSE [ATP2C1_Y452_A450T]" measured_target=AncSZ endpoint="phosphorylation enrichment" measurement=0.582
input_sequence="FRPHLYGTPSR [ADGRE2_Y670_S665F]" measured_target=AncSZ endpoint="phosphorylation enrichment" measurement=0.682
input_sequence="RFLRGYRQHAY [HLA-A_Y137_D140H]" measured_target=AncSZ endpoint="phosphorylation enrichment" measurement=1.1

Challenge: What value of phosphorylation enrichment has been recorded for this entry: GDAMLYFPSVS [GPR143_Y177_A173D_YF]
Response given: 0.721

Challenge: Entry YCRHNYGAVES [HLA-DRB1_Y112_V114A] please
Response given: 0.658

Challenge: Entry AGGTRYRYVSQ [UCN3_Y95_R91G] please
Response given: 0.529

Challenge: Entry KPGVNYFFRVS please
Response given: 1.06

Challenge: Entry AEFGLYAAMVR [VSX2_Y222_G223A_YF] please
Response given: 1.29

Challenge: Entry VDSNPYSRLMA [UBA5_Y53] please
Response given: 0.608

Challenge: Entry SVTCTYSPALD [TP53_Y126_N131D] please
Response given: 1.74

Challenge: Entry NCLRQYVAGRF [CRB1_Y711_E710Q] please
Response given: 0.993

Challenge: Entry ATRDVYNPFET [SCAMP3_Y41_L38R] please
Response given: 0.835

Data provenance is the supplement of paper PMC10065799.
